- METHOD_DESCRIPTION: GC-MS quantification of total and 13C-enriched metabolites in paired normal and cancerous lung tissues
- CONDITION_INFO: patient #7 (adenoC, grade II), cancer tissue
Structures can show the parent of a compound that is named as a salt.
For each entry below, report its metabolite content of lung tissue value.
Hi, when you answer, please include the unit after the number. Thanks!

Problem: Supply measured metabolite content of lung tissue of O=C(O)CC(O)(CC(=O)O)C(=O)O [Total Cit, citrate] in your reply.
Result: 1.18 μmole/g dry weight

Problem: Note down metabolite content of lung tissue recorded for "C[C@H](N)C(=O)O"
Result: 6.44 μmole/g dry weight

Problem: Let me know recorded metabolite content of lung tissue for N[C@@H](CCC(=O)O)C(=O)O [Total Glu, glutamate] , thanks.
Result: 2.97 μmole/g dry weight

Problem: Please indicate metabolite content of lung tissue recorded for CC(O)C(=O)O (stereo not shown) [lactate]
Result: 10.62 μmole/g dry weight

Problem: Write down metabolite content of lung tissue measured for item "NC(=O)CC[C@H](N)C(=O)O"
Result: 1.02 μmole/g dry weight

Problem: Look up and report measured metabolite content of lung tissue for this entry: N[C@@H](CC(=O)O)C(=O)O [Total Asp, aspartate]
Result: 3.09 μmole/g dry weight

Problem: Give metabolite content of lung tissue for the following compound: O=C(O)CCC(=O)O [Total Succ, succinate]
Result: 0.70 μmole/g dry weight

###

- METHOD_DESCRIPTION: GC-MS quantification of total and 13C-enriched metabolites in paired normal and cancerous lung tissues
- CONDITION_INFO: patient #10 (sqC, grade III), cancer tissue
Counter-ions that a name gives are not always drawn.
EXPERIMENTAL_READOUT: metabolite content of lung tissue (μmole/g dry weight)
Give just the number in μmole/g dry weight; leave the unit off.

Problem: Identify measured metabolite content of lung tissue corresponding to C[C@H](N)C(=O)O [Total Ala, alanine]
Result: 27.34

Problem: Using known records, supply metabolite content of lung tissue for CC(O)C(=O)O (stereo not shown) [lactate]
Result: 29.67

Problem: Report metabolite content of lung tissue for NC(=O)CC[C@H](N)C(=O)O [Total Gln, glutamine]
Result: 2.99

Problem: Identify the reported metabolite content of lung tissue for the following entry. O=C(O)CC(O)(CC(=O)O)C(=O)O [Total Cit, citrate]
Result: 1.37

Problem: State its metabolite content of lung tissue for this compound: N[C@@H](CCC(=O)O)C(=O)O [Total Glu, glutamate]
Result: 3.28

Problem: Determine its reported metabolite content of lung tissue: N[C@@H](CC(=O)O)C(=O)O [Total Asp, aspartate]
Result: 1.66

Problem: Quickly give me recorded metabolite content of lung tissue for O=C(O)CCC(=O)O [Total Succ, succinate]
Result: 3.13

###

- METHOD_DESCRIPTION: GC-MS quantification of total and 13C-enriched metabolites in paired normal and cancerous lung tissues
- CONDITION_INFO: patient #9 (sqC, grade II), cancer tissue
Structures can show the parent of a compound that is named as a salt.
Can you tell me metabolite content of lung tissue for the items I'm about to list?
Report as a plain number; the unit μmole/g dry weight is understood.

Problem: Fill in metabolite content of lung tissue for record "C[C@H](N)C(=O)O"
Result: 15.08

Problem: Provide only the value of recorded metabolite content of lung tissue for N[C@@H](CC(=O)O)C(=O)O [Total Asp, aspartate]
Result: 4.78

Problem: Please list metabolite content of lung tissue recorded for the compound CC(O)C(=O)O (stereo not shown) [lactate]
Result: 25.31

Problem: Query metabolite content of lung tissue for N[C@@H](CCC(=O)O)C(=O)O [Total Glu, glutamate]
Result: 4.78

Problem: Tell me its metabolite content of lung tissue given "NC(=O)CC[C@H](N)C(=O)O" as the entry.
Result: 2.71

Problem: Quote metabolite content of lung tissue reported for O=C(O)CC(O)(CC(=O)O)C(=O)O [Total Cit, citrate] please.
Result: 1.53

Problem: Please report the measured metabolite content of lung tissue for O=C(O)CCC(=O)O [Total Succ, succinate]
Result: 1.59

###

Field: metabolite content of lung tissue. Provide a value for each of the compounds that follow.
- METHOD_DESCRIPTION: GC-MS quantification of total and 13C-enriched metabolites in paired normal and cancerous lung tissues
- CONDITION_INFO: patient #6 (sqC, grade II), normal tissue
Counter-ions that a name gives are not always drawn.
Express your answer in μmole/g dry weight, writing the number without its unit.

Problem: For the compound N[C@@H](CCC(=O)O)C(=O)O [Total Glu, glutamate] , give its measured metabolite content of lung tissue value.
Result: 0.24

Problem: Dear colleague, please send me the reported metabolite content of lung tissue for "NC(=O)CC[C@H](N)C(=O)O" when you can.
Result: 0.56

Problem: Tell me metabolite content of lung tissue reported for N[C@@H](CC(=O)O)C(=O)O [Total Asp, aspartate]
Result: 1.32

Problem: Item O=C(O)CC(O)(CC(=O)O)C(=O)O [Total Cit, citrate] : provide metabolite content of lung tissue
Result: 0.60

Problem: Write down metabolite content of lung tissue measured for item "C[C@H](N)C(=O)O"
Result: 4.67

Problem: Fill in reported metabolite content of lung tissue for this entry: O=C(O)CCC(=O)O [Total Succ, succinate]
Result: 0.17

Problem: Return metabolite content of lung tissue for the following compound: CC(O)C(=O)O (stereo not shown) [lactate]
Result: 2.66

###

- METHOD_DESCRIPTION: GC-MS quantification of total and 13C-enriched metabolites in paired normal and cancerous lung tissues
- CONDITION_INFO: patient #8 (sqC, grade II-III), cancer tissue
Where a name gives a salt, the structure may show the parent alone.
Criterion: metabolite content of lung tissue meeting or surpassing 2 μmole/g dry weight. Met: Yes. Not met: No.

Problem: Identify whether the reported metabolite content of lung tissue of the following compound is 2 μmole/g dry weight or greater: N[C@@H](CC(=O)O)C(=O)O [Total Asp, aspartate]
Result: No

Problem: # check: metabolite content of lung tissue of NC(=O)CC[C@H](N)C(=O)O [Total Gln, glutamine] is greater than or equal to 2 μmole/g dry weight
Result: No

Problem: Decide: is the reported value of metabolite content of lung tissue for O=C(O)CC(O)(CC(=O)O)C(=O)O [Total Cit, citrate] equal to or greater than 2 μmole/g dry weight?
Result: No

Problem: Would you say CC(O)C(=O)O (stereo not shown) [lactate] shows metabolite content of lung tissue at minimum 2 μmole/g dry weight?
Result: Yes

Problem: Can O=C(O)CCC(=O)O [Total Succ, succinate] be said to have metabolite content of lung tissue at or above 2 μmole/g dry weight?
Result: No

Problem: Please indicate if the recorded metabolite content of lung tissue for N[C@@H](CCC(=O)O)C(=O)O [Total Glu, glutamate] meets or exceeds 2 μmole/g dry weight.
Result: Yes

Problem: Evaluate C[C@H](N)C(=O)O [Total Ala, alanine] : metabolite content of lung tissue at minimum 2 μmole/g dry weight?
Result: Yes

###

For each entry below, report its metabolite content of lung tissue value.
- METHOD_DESCRIPTION: GC-MS quantification of total and 13C-enriched metabolites in paired normal and cancerous lung tissues
- CONDITION_INFO: patient #8 (sqC, grade II-III), normal tissue
Where a name gives a salt, the structure may show the parent alone.
Write the value in μmole/g dry weight as a bare number.

Problem: In one line, give reported metabolite content of lung tissue of the entry O=C(O)CC(O)(CC(=O)O)C(=O)O [Total Cit, citrate] .
Result: 1.28

Problem: Please supply the value of reported metabolite content of lung tissue for the item CC(O)C(=O)O (stereo not shown) [lactate]
Result: 9.44

Problem: Using known records, supply metabolite content of lung tissue for "NC(=O)CC[C@H](N)C(=O)O"
Result: 0.64

Problem: Return the recorded metabolite content of lung tissue value; entry: N[C@@H](CC(=O)O)C(=O)O [Total Asp, aspartate]
Result: 2.67

Problem: Give metabolite content of lung tissue for the following compound: N[C@@H](CCC(=O)O)C(=O)O [Total Glu, glutamate]
Result: 1.88

Problem: Consider the compound O=C(O)CCC(=O)O [Total Succ, succinate] and give its recorded metabolite content of lung tissue.
Result: 0.89

Problem: Determine from records and report metabolite content of lung tissue for "C[C@H](N)C(=O)O"
Result: 4.97

###

- METHOD_DESCRIPTION: GC-MS quantification of total and 13C-enriched metabolites in paired normal and cancerous lung tissues
- CONDITION_INFO: patient #10 (sqC, grade III), normal tissue
Where a name gives a salt, the structure may show the parent alone.
Sorting guide: entries reporting metabolite content of lung tissue beneath 2 μmole/g dry weight go in the Condition met pile, the rest go in the Condition not met pile.

Problem: Find out if reported metabolite content of lung tissue for CC(O)C(=O)O (stereo not shown) [lactate] is less than 2 μmole/g dry weight
Result: Condition not met

Problem: Does NC(=O)CC[C@H](N)C(=O)O [Total Gln, glutamine] have metabolite content of lung tissue strictly under 2 μmole/g dry weight?
Result: Condition met

Problem: Would you kindly verify if metabolite content of lung tissue of O=C(O)CCC(=O)O [Total Succ, succinate] is strictly less than 2 μmole/g dry weight?
Result: Condition met

Problem: Say whether its metabolite content of lung tissue is strictly beneath 2 μmole/g dry weight. Entry: O=C(O)CC(O)(CC(=O)O)C(=O)O [Total Cit, citrate]
Result: Condition met

Problem: Find out if reported metabolite content of lung tissue for N[C@@H](CC(=O)O)C(=O)O [Total Asp, aspartate] is less than 2 μmole/g dry weight
Result: Condition not met

Problem: Take the compound C[C@H](N)C(=O)O [Total Ala, alanine] and say whether its metabolite content of lung tissue is less than 2 μmole/g dry weight.
Result: Condition not met

Problem: hey, is metabolite content of lung tissue for N[C@@H](CCC(=O)O)C(=O)O [Total Glu, glutamate] lower than 2 μmole/g dry weight or not?
Result: Condition met
